I'd appreciate it if you could supply IC50 values for the items below.
Target: UniProtKB O76074

Some compounds with recorded IC50:
Fc1cccc(CNc2c3ccccc3nc3ccccc23)c1F [Compound 20, Acridin-9-yl-(2,3-difluorobenzyl)-amine]; 7.25 µM
Fc1ccccc1CNc1c2ccccc2nc2ccccc12 [Compound 8, Acridin-9-yl-(2-fluorobenzyl)-amine]; 7.16 µM

Could you tell me IC50 for each of these compounds? They are listed below.
1. c1ccc(CNc2c3ccccc3nc3ccccc23)cc1 [Compound 1, Acridin-9-yl-benzyl-amine]
2. Fc1ccc(CNc2c3ccccc3nc3ccccc23)c(F)c1 [Compound 21, Acridin-9-yl-(2,4-difluorobenzyl)-amine]
3. COc1ccc(CNc2c3ccccc3nc3ccccc23)cc1F [Compound 19]
4. COc1ccc(CNc2c3ccccc3nc3ccccc23)cc1 [Compound 7, Acridin-9-yl-(4-methoxybenzyl)-amine]
5. Cc1ccccc1CNc1c2ccccc2nc2ccccc12 [Compound 2, Acridin-9-yl-(2-methylbenzyl)-amine]

["9.33 µM", "> 10 µM", "3.39 µM", "> 10 µM", "9.87 µM"]

---

Test system: CCRF-CEM
Assay: NCI-60 one-dose screen
Type: cell-based
Conditions: Homo sapiens, Leukemia panel, single dose 10^−5 M, read-out: Growth inhibition %
reported endpoint: inhibition at 10 µM (%)
Answers are plain numbers, in %.

Clc1ccccc1CNc1c2ccccc2nc2ccccc12; 89.3
COc1ccc(CNc2c3ccccc3nc3ccccc23)cc1OC; 69.5
Fc1cccc(CNc2c3ccccc3nc3ccccc23)c1F; 37.6
Cc1ccc(CNc2c3ccccc3nc3ccccc23)cc1; 79.1
COc1ccc(CNc2c3ccccc3nc3ccccc23)cc1; 61
COc1ccc2nc3ccccc3c(NCc3ccc(F)cc3)c2c1; 81.7

Next:
Return inhibition at 10 µM measured with CCRF-CEM given this compound: c1ccc(CCNc2c3ccccc3nc3ccccc23)cc1
46.7

---

Test system: U251
Test: NCI-60 one-dose screen
Assay type: cell-based
Details: Homo sapiens, U-251; U251, CNS Cancer panel; single dose 10^−5 M; read-out: Growth inhibition %
Provide the recorded inhibition at 10 µM for the entries that follow.

Known results for compounds:
Fc1ccc(CNc2c3ccccc3nc3ccccc23)cc1F [Compound 22, Acridin-9-yl-(3,4-difluorobenzyl)-amine]; 69.7%
Fc1ccc(CNc2c3ccccc3nc3ccccc23)cc1 [Compound 10, Acridin-9-yl-(4-fluorobenzyl)-amine]; 74.1%
COc1ccc(CNc2c3ccccc3nc3ccccc23)cc1OC [Compound 18, Acridin-9-yl-(3,4-dimethoxybenzyl)-amine]; 76.8%
COc1ccc(CNc2c3ccccc3nc3ccccc23)cc1F [Compound 19]; 73.1%

Each compound below has a reported value. Please supply its inhibition at 10 µM.
1. c1ccc(CNc2c3ccccc3nc3ccccc23)cc1 [Compound 1, Acridin-9-yl-benzyl-amine]
2. COc1ccc(CNc2c3ccccc3nc3ccccc23)c(OC)c1 [Compound 17, Acridin-9-yl-(2,4-dimethoxybenzyl)-amine]
3. Fc1cccc(CNc2c3ccccc3nc3ccccc23)c1 [Compound 9, Acridin-9-yl-(3-fluorobenzyl)-amine]

1. 61.5%
2. 58.2%
3. 64.8%

---

Tested on: T-47D
Assay: NCI-60 one-dose screen
Type: cell-based
Details: Homo sapiens, T47D, Breast Cancer panel, single dose 10^−5 M, read-out: Growth inhibition %
Answer each item with its documented inhibition at 10 µM.
Give bare numbers, in %.

Examples with their reported inhibition at 10 µM follow.
COc1ccccc1CNc1c2ccccc2nc2ccccc12 [Compound 5, Acridin-9-yl-(2-methoxybenzyl)-amine]; 53.8
COc1ccc2nc3ccccc3c(NCc3ccccc3)c2c1 [Compound 25, Benzyl-(2-methoxyacridin-9-yl)-amine]; 64.7
Fc1cccc(CNc2c3ccccc3nc3ccccc23)c1 [Compound 9, Acridin-9-yl-(3-fluorobenzyl)-amine]; 57.3
Clc1cccc(CNc2c3ccccc3nc3ccccc23)c1 [Compound 12, Acridin-9-yl-(3-chlorobenzyl)-amine]; 59.1

The following compounds each have a reported value; give each one's inhibition at 10 µM.
1. Clc1ccc(CNc2c3ccccc3nc3ccccc23)cc1 [Compound 13, Acridin-9-yl-(4-chlorobenzyl)-amine]
2. c1ccc(CCNc2c3ccccc3nc3ccccc23)cc1 [Compound 23, Acridin-9-yl-phenethyl-amine]
3. COc1ccc2nc3ccccc3c(NCc3ccc(C)cc3)c2c1 [Compound 26]
4. COc1ccc2nc3ccccc3c(NCc3ccc(F)cc3)c2c1 [Compound 28]
5. Cc1ccccc1CNc1c2ccccc2nc2ccccc12 [Compound 2, Acridin-9-yl-(2-methylbenzyl)-amine]
6. COc1ccc(CNc2c3ccccc3nc3ccccc23)cc1OC [Compound 18, Acridin-9-yl-(3,4-dimethoxybenzyl)-amine]
7. Fc1ccc(CNc2c3ccccc3nc3ccccc23)cc1F [Compound 22, Acridin-9-yl-(3,4-difluorobenzyl)-amine]
8. COc1ccc(CNc2c3ccccc3nc3ccccc23)c(OC)c1 [Compound 17, Acridin-9-yl-(2,4-dimethoxybenzyl)-amine]

1: 56.6; 2: 51.1; 3: 69.4; 4: 63.5; 5: 75.5; 6: 74.2; 7: 52.1; 8: 47.1

Working through the 2 compounds below one at a time, give inhibition at 10 µM for each.
1. Fc1cccc(CNc2c3ccccc3nc3ccccc23)c1F [Compound 20, Acridin-9-yl-(2,3-difluorobenzyl)-amine]
2. Fc1ccccc1CNc1c2ccccc2nc2ccccc12 [Compound 8, Acridin-9-yl-(2-fluorobenzyl)-amine]

31.7
55.2

Hey, quick one: what's inhibition at 10 µM for each of these?
1. Fc1ccc(CNc2c3ccccc3nc3ccccc23)cc1 [Compound 10, Acridin-9-yl-(4-fluorobenzyl)-amine]
2. Clc1ccccc1CNc1c2ccccc2nc2ccccc12 [Compound 11, Acridin-9-yl-(2-chlorobenzyl)-amine]
3. COc1cccc(CNc2c3ccccc3nc3ccccc23)c1OC [Compound 16, Acridin-9-yl-(2,3-dimethoxybenzyl)-amine]
4. c1coc(CNc2c3ccccc3nc3ccccc23)c1 [Compound 14, Acridin-9-yl-furan-2-ylmethyl-amine]
5. c1csc(-c2ccc(CNc3c4ccccc4nc4ccccc34)cc2)c1 [Compound 24]
6. COc1ccc(CNc2c3ccccc3nc3ccccc23)cc1 [Compound 7, Acridin-9-yl-(4-methoxybenzyl)-amine]
7. Cc1ccc2nc3ccccc3c(NCc3ccc(Cl)cc3)c2c1 [Compound 31]

[68.9, 69.5, 52.5, 30.7, 28.1, 55.1, 42.1]

Could you share which inhibition at 10 µM value was measured for Cc1cccc(CNc2c3ccccc3nc3ccccc23)c1 [Compound 3, Acridin-9-yl-(3-methylbenzyl)-amine] ?
74.7
